test-system: human Nav1.7 (hNav1.7) (Homo sapiens, UniProt Q15858)
Construct: expressed in transfected cells
Sequence (Q15858 whole entry): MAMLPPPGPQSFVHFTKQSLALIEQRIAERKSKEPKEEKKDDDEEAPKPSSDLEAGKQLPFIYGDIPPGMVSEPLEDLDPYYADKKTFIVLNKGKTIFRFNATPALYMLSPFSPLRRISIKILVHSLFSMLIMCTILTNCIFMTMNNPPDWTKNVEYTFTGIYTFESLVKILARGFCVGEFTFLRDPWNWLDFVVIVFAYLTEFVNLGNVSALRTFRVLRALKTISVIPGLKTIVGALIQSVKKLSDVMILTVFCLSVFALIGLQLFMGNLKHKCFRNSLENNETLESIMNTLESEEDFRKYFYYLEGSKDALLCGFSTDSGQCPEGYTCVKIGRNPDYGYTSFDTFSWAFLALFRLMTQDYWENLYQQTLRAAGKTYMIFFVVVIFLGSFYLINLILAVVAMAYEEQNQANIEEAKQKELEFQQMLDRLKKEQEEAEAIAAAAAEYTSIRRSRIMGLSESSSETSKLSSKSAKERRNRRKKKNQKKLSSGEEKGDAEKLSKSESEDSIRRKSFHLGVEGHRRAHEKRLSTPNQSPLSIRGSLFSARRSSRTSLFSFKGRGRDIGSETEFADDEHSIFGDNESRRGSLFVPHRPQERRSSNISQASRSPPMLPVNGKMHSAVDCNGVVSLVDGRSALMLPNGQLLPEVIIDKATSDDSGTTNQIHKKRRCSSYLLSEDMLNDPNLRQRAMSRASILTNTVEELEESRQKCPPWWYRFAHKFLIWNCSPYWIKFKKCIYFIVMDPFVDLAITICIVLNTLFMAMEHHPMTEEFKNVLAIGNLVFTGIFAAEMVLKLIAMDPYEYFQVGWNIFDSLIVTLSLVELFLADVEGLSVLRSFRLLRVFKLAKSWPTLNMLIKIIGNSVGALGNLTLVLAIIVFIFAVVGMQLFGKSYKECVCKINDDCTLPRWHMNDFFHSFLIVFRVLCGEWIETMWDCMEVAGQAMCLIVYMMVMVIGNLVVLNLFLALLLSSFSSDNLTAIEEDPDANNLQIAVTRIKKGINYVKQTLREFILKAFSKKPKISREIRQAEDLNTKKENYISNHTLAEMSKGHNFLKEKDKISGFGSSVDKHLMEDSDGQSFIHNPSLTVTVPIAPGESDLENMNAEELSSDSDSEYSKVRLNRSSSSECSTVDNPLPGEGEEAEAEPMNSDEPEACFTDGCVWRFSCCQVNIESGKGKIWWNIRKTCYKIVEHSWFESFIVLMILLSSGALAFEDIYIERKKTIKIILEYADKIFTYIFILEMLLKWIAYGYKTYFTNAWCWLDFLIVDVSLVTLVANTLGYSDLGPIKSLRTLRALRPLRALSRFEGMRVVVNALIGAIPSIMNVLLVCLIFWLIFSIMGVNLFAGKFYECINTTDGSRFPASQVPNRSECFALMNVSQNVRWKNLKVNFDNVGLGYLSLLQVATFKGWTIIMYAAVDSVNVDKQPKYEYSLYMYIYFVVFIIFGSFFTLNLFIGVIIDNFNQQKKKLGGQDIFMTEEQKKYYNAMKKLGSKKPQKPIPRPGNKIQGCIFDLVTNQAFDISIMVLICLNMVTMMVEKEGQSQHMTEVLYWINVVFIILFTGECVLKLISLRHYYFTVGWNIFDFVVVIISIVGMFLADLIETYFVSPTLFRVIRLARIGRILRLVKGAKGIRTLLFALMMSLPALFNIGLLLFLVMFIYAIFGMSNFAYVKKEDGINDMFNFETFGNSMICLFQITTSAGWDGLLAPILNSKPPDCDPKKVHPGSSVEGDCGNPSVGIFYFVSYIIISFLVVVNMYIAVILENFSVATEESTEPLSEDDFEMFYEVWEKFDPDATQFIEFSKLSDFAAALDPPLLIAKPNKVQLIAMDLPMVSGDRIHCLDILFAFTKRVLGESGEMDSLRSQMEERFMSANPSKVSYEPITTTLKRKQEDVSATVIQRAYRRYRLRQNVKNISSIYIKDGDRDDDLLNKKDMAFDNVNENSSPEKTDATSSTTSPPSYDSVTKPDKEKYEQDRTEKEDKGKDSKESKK
assay-notes: hNav1.7 whole-cell patch-clamp electrophysiology (automated PatchXpress 7000A or manual) in stably expressing 293 cells
Format: cell-based
condition-set: average IC50, human Nav1.7
measured-metric: IC50 (µM)

smiles-data: CNC(=O)c1cccc(Nc2ncnc(N3CCN(c4ccc(F)cc4)CC3)n2)c1
IC50 / µM: 6.83

a: CNC(=O)c1cccc(Nc2ncnc(N3CC(Oc4ccccc4F)C3)n2)c1
b: CNC(=O)c1cccc(Nc2ncnc(N3CCc4c(cccc4OCC(F)(F)F)C3)n2)c1
c: CNC(=O)c1cccc(Nc2ncnc(N3CCc4cc(OCCC(F)(F)F)ccc4C3)n2)c1
Please list the entries, largest IC50 first. Please express your ranking as an ordered list of the labels.
a, b, c
(a: 5.6 µM, b: 2.73 µM, c: 0.98 µM)

* * *

test-system: human Nav1.7 (hNav1.7) (Homo sapiens, UniProt Q15858)
Construct: expressed in transfected cells
assay-notes: hNav1.7 whole-cell patch-clamp electrophysiology (automated PatchXpress 7000A or manual) in stably expressing 293 cells
Format: cell-based
condition-set: average IC50, human Nav1.7
measured-metric: IC50 (µM)

smiles-data: CNC(=O)c1cccc(Nc2cccc(N3CC(Oc4ccc(F)cc4)C3)n2)c1
measured-metric: IC50
observed-result: 0.75
//
smiles-data: CNC(=O)c1cccc(Nc2ncnc(N3CCN(c4ccc(C)cc4)CC3)n2)c1
measured-metric: IC50
observed-result: 0.47
//
smiles-data: CNC(=O)c1cccc(Nc2cc(N3CC(Oc4ccc(F)cc4)C3)ccn2)c1
measured-metric: IC50
observed-result: 4.84
//
smiles-data: CNC(=O)c1cccc(Nc2ncnc(N3CCc4cc(F)ccc4C3)n2)c1
measured-metric: IC50
observed-result: 4.67
//
smiles-data: CNC(=O)c1cccc(Nc2ncnc(N3CCC(COc4ccccc4)CC3)n2)c1
measured-metric: IC50
observed-result: 2.8
//
smiles-data: CNC(=O)c1cccc(Nc2ncnc(N3CC(Oc4ccc(OCc5ccccc5)cc4)C3)n2)c1
measured-metric: IC50
observed-result: 8.47
//
smiles-data: CNC(=O)c1cccc(Nc2ncnc(NCCOc3ccc(Cl)cc3)n2)c1
measured-metric: IC50
observed-result: 10.4
//
smiles-data: CNC(=O)c1cccc(Nc2nccc(N3CC(Oc4ccc(OC)cc4)C3)n2)c1
measured-metric: IC50
observed-result: 0.43
//
smiles-data: CNC(=O)c1cccc(Nc2ncnc(N3CC(Oc4cc(F)cc(F)c4)C3)n2)c1
measured-metric: IC50
observed-result: 5.43
//
smiles-data: CNC(=O)c1cccc(Nc2ncnc(N3CCC(C(=O)c4ccc(Cl)cc4)CC3)n2)c1
measured-metric: IC50
observed-result: 0.49

1: CNC(=O)c1cccc(Nc2ncnc(N3CCN(c4ccccc4C(F)(F)F)CC3)n2)c1
2: CNC(=O)c1cccc(Nc2ncnc(N3CC(COc4ccc(Cl)c(C(F)(F)F)c4)C3)n2)c1
Which has the smaller recorded IC50, 1 or 2 ? Bench note: the answer is the label of the chosen record.
1

* * *

test-system: human Nav1.7 (hNav1.7) (Homo sapiens)
Construct: expressed in transfected cells
assay-notes: hNav1.7 whole-cell patch-clamp electrophysiology (automated PatchXpress 7000A or manual) in stably expressing 293 cells
Format: cell-based
condition-set: average IC50, human Nav1.7
measured-metric: IC50 (µM)

Worked set:
smiles-data: CNC(=O)c1cccc(Nc2ncnc(N3CCC(c4csc(-c5ccccc5)n4)CC3)n2)c1
observed-result: 0.39

smiles-data: CNC(=O)c1cccc(Nc2ncnc(N3CCC(c4ccc(Cl)cc4)CC3)n2)c1
observed-result: 13.1

smiles-data: CN(C)C(=O)c1cccc(Nc2ncnc(N3CCC(OCc4ccc(OC(F)(F)F)cc4)CC3)n2)c1
observed-result: 11.1

smiles-data: CNC(=O)c1cccc(Nc2ncnc(N3CC(COc4ccc(Cl)cc4Cl)C3)n2)c1
observed-result: 2.55

smiles-data: CNC(=O)c1cccc(Nc2ncnc(N3CCC(Cc4ccc(F)c(F)c4)CC3)n2)c1
observed-result: 3.1

a: CNC(=O)c1cccc(Nc2ncnc(N3CCc4ccc(OC)cc4C3)n2)c1
b: CNC(=O)c1cccc(Nc2ncnc(N3CC(Oc4cccc(OC(F)(F)F)c4)C3)n2)c1
Given the listed records, identify the one among a and b with higher IC50. When you have decided, please share the label of that item.
a

Data provenance: patent US9334269B2
